# TARGET UNDER TEST: NA of rCIV-1177 (Influenza A virus, UniProt A0A2D0WZJ5)
MEASUREMENT NAME: IC50 (nM)
Respond numerically; units are nM and should not be typed.

Request: Look at this molecule and give its reported IC50. CCC(CC)O[C@@H]1C=C(C(=O)O)C[C@H](N)[C@H]1NC(C)=O [Oseltamivir carboxylate, oseltamivir carboxylate]
Result: 0.2

Request: Look at this molecule and give its reported IC50. CCC(CC)[C@H](NC(C)=O)[C@@H]1[C@H](O)[C@@H](C(=O)O)C[C@H]1N=C(N)N
Result: 0.19

====

# Test system: Beth15
# TEST DESCRIPTION: microbe, parasite or virus in culture
# Format: cell-based, human H3N2 influenza A virus (A/Bethesda/55/2015)
# ASSAY SETUP: Influenza A virus, MDCK, read-out: Phenotypic assay (Mean IC50 ± SD)
Counter-ions that a name gives are not always drawn.
MEASUREMENT NAME: IC50

Request: Look at this compound and give its reported IC50. NC12CC3CC(CC(C3)C1)C2 [Amantadine, amantadine hydrochloride]
Result: > 100 µM

From: paper PMC7182277
